- Subject of test: MCL1/Bim (Homo sapiens (Human), UniProt Q07820)
- Sequence (Q07820 171-327): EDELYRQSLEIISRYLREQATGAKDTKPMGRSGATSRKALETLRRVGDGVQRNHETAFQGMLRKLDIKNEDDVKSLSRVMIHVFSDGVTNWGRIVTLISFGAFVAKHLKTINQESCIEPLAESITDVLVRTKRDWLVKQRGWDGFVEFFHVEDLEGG
- Assay notes: MCL1/Bim Binding AlphaLISA Assay
- Protocol conditions: recombinant human 6xHis-MCL1 (171-327), biotinylated Bim peptide (51-76)
Label scheme, based on IC50: class A = under 0.1 nM, class B = from 0.1 nM up to 0.2 nM, class C = 0.2 nM and over

stdin: Input COc1nn(C)cc1C(=O)N[S@@]1(=O)=NC(=O)c2ccc3c(c2)N(C[C@@H]2CC[C@H]2[C@@H](OCCN2CCC(OC)CC2)/C=C/C[C@H](C)C1)C[C@@]1(CCCc2cc(Cl)ccc21)CO3 ; output its category
stdout: class A

stdin: Now the same for C=CCO[C@@H]1/C=C/C[C@H](C)C[S@@](=O)(NC(=O)c2cn(C)nc2OC)=NC(=O)c2ccc3c(c2)N(C[C@@H]2CC[C@H]21)C[C@@]1(CCCc2cc(Cl)ccc21)CO3
stdout: class C

stdin: Now the same for CC[C@H]1C/C=C/[C@H](OC)[C@@H]2CC[C@H]2CN2C[C@@]3(CCCc4cc(Cl)ccc43)COc3ccc(cc32)C(=O)N=[S@](=O)(NC(=O)NC2CC2)C1
stdout: class C

stdin: Now the same for COc1nn(C)cc1C(=O)N[S@@]1(=O)=NC(=O)c2ccc3c(c2)N(C[C@@H]2CC[C@H]2[C@@H](OC)C[C@H]2CCO[C@@H]2[C@H](C)C1)C[C@@]1(CCCc2cc(Cl)ccc21)CO3
stdout: class A

stdin: Now the same for COc1nn(C)cc1C(=O)N[S@@]1(=O)=NC(=O)c2ccc3c(c2)N(C[C@@H]2CC[C@H]2[C@@H](OC)C[C@@H]2[C@H](OC[C@H]2C)[C@H](C)C1)C[C@@]1(CCCc2ccccc21)CO3
stdout: class C

stdin: Now the same for COc1nn(C)cc1C(=O)N[S@@]1(=O)=NC(=O)c2ccc3c(c2)N(C[C@@H]2CC[C@H]2[C@](O)(CC(=O)N2CCN(C4COC4)CC2)/C=C/C[C@H](C)C1)C[C@@]1(CCCc2cc(Cl)ccc21)CO3
stdout: class B

stdin: Now the same for COc1nn(C)cc1C(=O)N[S@@]1(=O)=NC(=O)c2ccc3c(c2F)N(C[C@@H]2CC[C@H]2C(OC)/C=C/[C@H](OC)[C@H](C)C1)C[C@@]1(CCCc2cc(Cl)ccc21)CO3 (stereo partly shown)
stdout: class A

stdin: Now the same for COc1nn(C)cc1C(=O)N[S@@]1(=O)=NC(=O)c2ccc3c(c2)N(C[C@@H]2CC[C@H]2[C@@H](OC(=O)CCC2CCOCC2)/C=C/C[C@H](C)C1)C[C@@]1(CCCc2cc(Cl)ccc21)CO3
stdout: class B

stdin: Now the same for COc1nn(C)cc1C(=O)N[S@@]1(=O)=NC(=O)c2ccc3c(c2)N(C[C@@H]2CC[C@H]2[C@@H](OCCCN2CCOCC2)/C=C/C[C@H](C)C1)C[C@@]1(CCCc2cc(Cl)ccc21)CO3
stdout: class B

stdin: Now the same for COc1nn(C)cc1C(=O)N[S@@]1(=O)=NC(=O)c2ccc3c(c2)N(C[C@@H]2CC[C@H]2/C=C/CC[C@H](C)C1)C[C@@]1(CCCc2cc(Cl)ccc21)CO3 (mixture of isomers)
stdout: class B

stdin: Now the same for CO[C@H]1/C=C/C[C@H](C)[C@@H](C)[S@@](=O)(NC(=O)c2cc3n(c2)CCOC3)=NC(=O)c2ccc3c(c2)N(C[C@@H]2CC[C@H]21)C[C@]1(CO3)C[C@@H]2C[C@@H]2c2cc(Cl)ccc21
stdout: class C

stdin: Now the same for COCC#CCO[C@H]1/C=C/[C@H](OC)[C@@H]2CC[C@H]2CN2C[C@@]3(CCCc4cc(Cl)ccc43)COc3ccc(cc32)C(=O)N=[S@](=O)(NC(=O)c2cn(C)nc2OC)C[C@H]1C
stdout: class C

stdin: Now the same for CO[C@H]1/C=C/C[C@H](C)[C@@H](C)[S@@](=O)(NC(=O)c2cnn(C)c2)=NC(=O)c2ccc3c(n2)N(C[C@@H]2CC[C@H]21)C[C@@]1(CCCc2cc(Cl)ccc21)CO3
stdout: class A

stdin: Now the same for C[C@H]1C/C=C/[C@H](O)[C@@H]2CC[C@H]2CN2C[C@@]3(CCCc4cc(Cl)ccc43)COc3ccc(cc32)C(=O)N=[S@](=O)(Nc2ncnc3nn(C)cc23)C1
stdout: class A

stdin: Now the same for COc1ncc2c(N[S@@]3(=O)=NC(=O)c4ccc5c(c4)N(C[C@@H]4CC[C@H]4[C@@H](OC)/C=C/C[C@H](C)C3)C[C@@]3(CCCc4cc(Cl)ccc43)CO5)ncnc2n1
stdout: class B

stdin: Now the same for COc1nn(C)cc1C(=O)N[S@@]1(=O)=NC(=O)c2ccc3c(c2)N(C[C@@H]2CC[C@H]2[C@@H](OC)/C=C/[C@H](OCCN2CC(N(C)C)C2)[C@H](C)C1)C[C@@]1(CCCc2cc(Cl)ccc21)CO3
stdout: class C
